# System: HCC-2998 colon
# Procedure text: NCI tumour cell line growth inhibition, 48 h; in the data active = GI50 below about 0.43 µM; inactive = the rest
// classify into true (1) (active), false (0) (inactive)

Q: What did this assay record as the result for "N#Cc1ccc(N2Cc3ccccc3OC3=C2C(=O)c2c(O)ccc(O)c2C3=O)cc1" ?
Result: false (0)

Q: What did this assay record as the result for "CCOC(=O)c1c2c(n(Cc3ccccc3)c1C)-c1ccccc1C(=O)C2=O" ?
Result: false (0)

Q: What did this assay record as the result for "CC1CCN(CCCCCOc2ccc3oc4cc(Cl)ccc4c(=O)c3c2)CC1" ?
Result: false (0)

Q: What did this assay record as the result for "CN(C)CCOc1ccc(/C(=C(/CCCl)c2ccccc2)c2ccccc2)cc1" ?
Result: false (0)

Q: What did this assay record as the result for CCN1C(=O)NC(=O)C(C)(N2C(=O)c3c(F)c(F)c(F)c(F)c3C2=O)C1=O (stereo not given) ?
Result: false (0)

Q: What did this assay record as the result for C=CC(C=O)C1(O)CCOC(=O)/C1=C\N (stereo not given) ?
Result: false (0)

Q: What did this assay record as the result for "CCOc1cc2c(cc1O)/C(=N\O)C[C@@H]1[C@@H]2CC[C@]2(C)[C@@H](O)CC[C@@H]12" ?
Result: false (0)

Q: What did this assay record as the result for "Cc1cc(C2=NNC(=O)Cc3cc4c(cc32)OCCO4)cc(C)c1N" ?
Result: false (0)

Q: What did this assay record as the result for "COC(=O)c1ccc(NC(=O)Nc2ccc3oc(=O)c4ccccc4c3c2)cc1" ?
Result: false (0)

Q: What did this assay record as the result for "CC(C)(C)c1[nH]cnc1/C=c1\[nH]c(=O)/c(=C/c2ccccc2)[nH]c1=O" ?
Result: true (1)

The reported measurements were obtained from PubChem BioAssay (NCI).
